meta.source: PubChem BioAssay AID1508591

Here the recorded half-life is given for each entry.
settings: rat; liver microsomes; pH 7.4; 15.0 min; 1.0 µM

Here is how some compounds turned out for half-life.
CCOC(=O)N1CCN(C(=O)Cn2sc3nc(C)cc(C)c3c2=O)CC1 ... > 30 min
COc1ccc(-n2nc(C3CCCN(C(=O)C4CC4)C3)[nH]c2=O)cc1 (stereo not drawn) ... > 30 min

Now take the following compound into account.
Req: half-life for COc1ccc2c3c([nH]c2c1)C1CC2C(CC(O)C(OC)C2CO)CN1CC3 (stereo not drawn) ?
Resp: > 30 min

* * *

Here the recorded half-life is given for each entry.
settings: rat; liver microsomes; pH 7.4; 15.0 min; 1.0 µM

Here is how some compounds turned out for half-life.
O=c1c(-c2ccc(O)cc2)coc2cc(O)ccc12 ... > 30 min
O=[S+]([O-])(Nc1ccc(N2CCNCC2)cc1)c1ccc(NCc2ccc(Br)cc2O)cc1 ... > 30 min

Now take the following compound into account.
Req: half-life for Cc1cc(-c2cc3c(nc2-c2ccccc2)nc(C(=O)NCCN(C)C)n3C)ccn1 ?
Resp: > 30 min

* * *

conditions: rat; liver microsomes; pH 7.4; 15.0 min; 1.0 µM
Decision: half-life compared against 10 min; not below it gives MET, below it gives NOT MET.

CC[C@H]1CN(C)[C@H]2Cc3c([nH]c4ccccc34)C(=O)C[C@H]1[C@H]2C(=O)OC ... MET

Req: Dear colleague, could you confirm whether Cc1ccc(S(=O)(=O)Nc2ccncc2C(=O)Nc2nc(-c3ccccc3)cs2)cc1 has half-life at or above 10 min?
Resp: MET

Req: Dear colleague, could you confirm whether COc1cccc(-c2noc(Nc3ccc4c(c3)OCCO4)n2)c1 has half-life at or above 10 min?
Resp: MET

Req: Dear colleague, could you confirm whether CC[C@H](C)[C@@H]([C@@H](CC(=O)N1CCC[C@H]1[C@H](OC)[C@@H](C)C(=O)N[C@@H](Cc1ccccc1)c1nccs1)OC)N(C)C(=O)[C@@H](NC(=O)[C@H](C(C)C)N(C)C)C(C)C has half-life at or above 10 min?
Resp: MET

Req: Dear colleague, could you confirm whether O=C1Nc2ccccc2/C1=C\c1ccc(O)cc1 has half-life at or above 10 min?
Resp: MET

Req: Dear colleague, could you confirm whether CN([C@@H](Cc1ccc(OS(=O)(=O)c2cccc3cnccc23)cc1)C(=O)N1CCN(c2ccccc2)CC1)S(=O)(=O)c1cccc2cnccc12 has half-life at or above 10 min?
Resp: NOT MET

Req: Dear colleague, could you confirm whether CCOc1ccc(C(C)CNC(=O)c2cc3sccc3n2Cc2ccccc2)cc1OCC (configuration not stated) has half-life at or above 10 min?
Resp: NOT MET

* * *

conditions: rat; liver microsomes; pH 7.4; 15.0 min; 1.0 µM
Here the recorded half-life is given for each entry.

O=C(Cc1nc2ccc(Cl)cc2[nH]1)Nc1ccc(S(=O)(=O)Nc2nccs2)cc1 ... > 30 min
CC(C)c1cc(C(=O)N2CC[C@@H](NC(=O)C3CC3)C2)n[nH]1 ... > 30 min

Now take the following molecule into account.
Req: half-life for CC(=O)NCc1ccc(-c2csc(Nc3cccc(C)c3)n2)o1 ?
Resp: > 30 min

* * *

details: rat; liver microsomes; pH 7.4; 15.0 min; 1.0 µM
Here the recorded half-life is given for each entry.

CC(C)CC(=O)Nc1n[nH]c2c1CN(C(=O)C1CCN(C)CC1)C2(C)C ... > 30 min
CNC(=O)c1cc(Oc2ccc(NC(=O)Nc3ccc(Cl)c(C(F)(F)F)c3)c(F)c2)ccn1 ... > 30 min
Cc1ccc(-n2ncc3c(Nc4cccc(C(=O)O)c4)ncnc32)cc1 ... > 30 min
O=C(Nc1ccc(S(=O)(=O)Nc2nc(-c3ccccc3)cs2)cc1)c1ccc2ccccc2c1 ... > 30 min
CC[C@@H](CO)NC(=O)[C@@H]1C=C2c3cccc4c3c(cn4C)C[C@H]2N(C)C1 ... > 30 min

Req: half-life for O=C(Nc1nc2cc(C(F)(F)F)ccc2s1)c1ccc(-c2cccc([N+](=O)[O-])c2)o1 ?
Resp: > 30 min

Req: half-life for Cc1ccnc(NC(=S)N2CCN(c3ccc(N)cc3)CC2)c1 ?
Resp: > 30 min

Req: half-life for N#Cc1ccc(C(=O)Nc2ccc(Cl)c(-c3nc4cc(Cl)ccc4o3)c2)c(F)c1 ?
Resp: > 30 min
